Attribution: paper PMC7892954

# assay.method.text: DDI study: pharmacokinetics of fedratinib in rats with or without antifungal drugs
# Format: in vivo, Sprague-Dawley (SD) rats
# condition.label: male, Sprague-Dawley, rat, plasma, po, 40 mg/kg, 40 mg/kg fedratinib oral gavage, Group A: control (0.5% CMC-Na) 30 min before, n = 6, Mean ± SD
# Source text: The UPLC-MS/MS procedures were developed and validated to detect fedratinib concentration in plasma to support an investigational study in healthy male Sprague-Dawley (SD) rats (weighing 200 ± 20 g), which were purchased from Laboratory Animal Center of Wenzhou Medical University (Wenzhou, China). The protocols and procedures of the animal experiment were checked in accordance with the regulations defined by Wenzhou Medical University Animal Care and Use Committee (wydw 2018-0002). […]
reported.property: Tmax (h)
The answer is to be given in h; state only the numeric part.

Asked: So what's the measured Tmax for this one? Cc1cnc(Nc2ccc(OCCN3CCCC3)cc2)nc1Nc1cccc(S(=O)(=O)NC(C)(C)C)c1
Given back: 5.43

----------
# assay.method.text: DDI study: pharmacokinetics of fedratinib in rats with or without antifungal drugs
# Assay type: in vivo, Sprague-Dawley (SD) rats
# condition.label: male, Sprague-Dawley, rat, plasma, po, 40 mg/kg, 40 mg/kg fedratinib oral gavage, Group E: 20 mg/kg itraconazole 30 min before, n = 6, Mean ± SD
reported.property: Tmax (h)
The answer is to be given in h; state only the numeric part.

Asked: So what's the measured Tmax for this one? Cc1cnc(Nc2ccc(OCCN3CCCC3)cc2)nc1Nc1cccc(S(=O)(=O)NC(C)(C)C)c1
Given back: 7.2

----------
# assay.method.text: DDI study: pharmacokinetics of fedratinib in rats with or without antifungal drugs
# Type: in vivo, Sprague-Dawley (SD) rats
# condition.label: male, Sprague-Dawley, rat, plasma, po, 40 mg/kg, 40 mg/kg fedratinib oral gavage, Group A: control (0.5% CMC-Na) 30 min before, n = 6, Mean ± SD
reported.property: half-life (h)
The answer is to be given in h; state only the numeric part.

Asked: So what's the measured half-life for this one? Cc1cnc(Nc2ccc(OCCN3CCCC3)cc2)nc1Nc1cccc(S(=O)(=O)NC(C)(C)C)c1
Given back: 11.1

----------
# assay.method.text: DDI study: pharmacokinetics of fedratinib in rats with or without antifungal drugs
# Type: in vivo, Sprague-Dawley (SD) rats
# condition.label: male, Sprague-Dawley, rat, plasma, po, 40 mg/kg, 40 mg/kg fedratinib oral gavage, Group B: 20 mg/kg isavuconazole 30 min before, n = 6, Mean ± SD
reported.property: Cmax (ng/mL)
The answer is to be given in ng/mL; state only the numeric part.

Asked: So what's the measured Cmax for this one? Cc1cnc(Nc2ccc(OCCN3CCCC3)cc2)nc1Nc1cccc(S(=O)(=O)NC(C)(C)C)c1 [Fedratinib]
Given back: 123

----------
# assay.method.text: DDI study: pharmacokinetics of fedratinib in rats with or without antifungal drugs
# Assay type: in vivo, Sprague-Dawley (SD) rats
# condition.label: male, Sprague-Dawley, rat, plasma, po, 40 mg/kg, 40 mg/kg fedratinib oral gavage, Group E: 20 mg/kg itraconazole 30 min before, n = 6, Mean ± SD, read-out: CLz/F (converted)
reported.property: CL/F (mL/min/kg)
The answer is to be given in mL/min/kg; state only the numeric part.

Asked: So what's the measured CL/F for this one? Cc1cnc(Nc2ccc(OCCN3CCCC3)cc2)nc1Nc1cccc(S(=O)(=O)NC(C)(C)C)c1 [Fedratinib]
Given back: 204
